Give measured pIC50 for each item. Keep answers brief.
Biological target: Xanthine dehydrogenase/oxidase (Bos taurus, UniProt P80457)
Sequence (P80457 whole entry): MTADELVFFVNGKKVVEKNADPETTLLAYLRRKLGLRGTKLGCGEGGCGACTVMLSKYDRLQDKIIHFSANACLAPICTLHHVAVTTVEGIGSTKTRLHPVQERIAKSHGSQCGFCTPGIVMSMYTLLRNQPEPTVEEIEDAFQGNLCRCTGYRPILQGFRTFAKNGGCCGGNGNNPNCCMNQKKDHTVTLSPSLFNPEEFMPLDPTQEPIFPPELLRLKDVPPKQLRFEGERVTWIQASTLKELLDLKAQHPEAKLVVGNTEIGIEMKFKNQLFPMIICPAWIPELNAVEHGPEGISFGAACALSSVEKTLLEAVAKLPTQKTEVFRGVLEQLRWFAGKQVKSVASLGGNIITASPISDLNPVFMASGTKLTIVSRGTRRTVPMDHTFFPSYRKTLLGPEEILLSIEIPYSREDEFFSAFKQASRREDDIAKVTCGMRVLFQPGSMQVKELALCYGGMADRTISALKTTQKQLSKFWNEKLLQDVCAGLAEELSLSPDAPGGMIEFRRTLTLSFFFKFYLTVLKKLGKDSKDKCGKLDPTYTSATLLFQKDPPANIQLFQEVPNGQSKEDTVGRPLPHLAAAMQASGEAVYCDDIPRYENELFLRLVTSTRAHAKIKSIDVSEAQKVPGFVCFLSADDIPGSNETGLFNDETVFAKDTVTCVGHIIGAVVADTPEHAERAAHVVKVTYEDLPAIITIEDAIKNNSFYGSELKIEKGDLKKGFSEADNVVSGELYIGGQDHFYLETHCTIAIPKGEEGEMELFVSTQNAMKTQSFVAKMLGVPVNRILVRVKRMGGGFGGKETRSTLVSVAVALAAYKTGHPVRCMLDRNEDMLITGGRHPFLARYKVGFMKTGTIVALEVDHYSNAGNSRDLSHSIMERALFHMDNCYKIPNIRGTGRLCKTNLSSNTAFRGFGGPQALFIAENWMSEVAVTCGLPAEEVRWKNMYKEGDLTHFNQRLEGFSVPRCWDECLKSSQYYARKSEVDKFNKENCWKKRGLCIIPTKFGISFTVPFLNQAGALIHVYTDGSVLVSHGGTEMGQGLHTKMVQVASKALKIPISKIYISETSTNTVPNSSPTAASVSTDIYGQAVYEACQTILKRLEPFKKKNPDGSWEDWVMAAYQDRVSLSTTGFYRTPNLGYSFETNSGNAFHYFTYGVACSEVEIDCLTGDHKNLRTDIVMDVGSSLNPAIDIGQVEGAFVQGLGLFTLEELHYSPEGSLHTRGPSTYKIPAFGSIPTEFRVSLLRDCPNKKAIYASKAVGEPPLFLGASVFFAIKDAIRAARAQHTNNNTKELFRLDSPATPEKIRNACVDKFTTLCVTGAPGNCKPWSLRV
Assay: Inhibition of bovine xanthine oxidase assessed as reduction in uric acid formation using xanthine as substrate preincubated for 15 mins followed by substrate addition by spectrophotometric analysis
Respond using a number only.

Summary for this molecule, COCOc1ccc(-c2nc(-c3ccnc(C)c3)n[nH]2)cc1C#N : pIC50 is 7.62

Summary for this molecule, Cc1cc(-c2n[nH]c(-c3ccc(OCC(C)C)c(C#N)c3)n2)ccn1 : pIC50 is 7.77

Summary for this molecule, Cc1cc(-c2n[nH]c(-c3ccc(OCC4COC(C)(C)O4)c(C#N)c3)n2)ccn1 (stereo unspecified) : pIC50 is 7.22

Summary for this molecule, CCCCCOc1ccc(-n2cc(-c3ccncc3)nn2)cc1C#N : pIC50 is 4.79

Summary for this molecule, CCOC(=O)c1cc(-c2nnc(-c3ccnc(C)c3)[nH]2)ccc1OCC(C)C : pIC50 is 7.7

Summary for this molecule, C=CCOc1ccc(-c2nc(-c3cccnc3)cn2O)cc1C#N : pIC50 is 5.02

Summary for this molecule, CC(C)COc1ccc(-c2nc(-c3cccnc3)cn2O)cc1C#N : pIC50 is 4.99

Summary for this molecule, CC(C)COc1ccc(-c2nnc(-c3ccnc(Cl)c3)[nH]2)cc1[N+](=O)[O-] : pIC50 is 8

Summary for this molecule, COc1ccc(COc2ccc(-n3cc(-c4ccncc4)nn3)cc2C#N)cc1 : pIC50 is 4.63

Summary for this molecule, CC(C)CCOc1ccc(-c2nc(-c3ccncc3)cn2O)cc1C#N : pIC50 is 6.19

Summary for this molecule, CC(C)Oc1ccc(-n2cc(-c3ccncc3)nn2)cc1C#N : pIC50 is 4.6

###

Target: Xanthine dehydrogenase/oxidase (Bos taurus)
Assay: Inhibition of bovine xanthine oxidase assessed as reduction in uric acid formation using xanthine as substrate preincubated for 15 mins followed by substrate addition by spectrophotometric analysis
Cut-off 5 on pIC50, inclusive. At or above means yes; below means no.

[ask] # check: pIC50 of COCCOCOc1ccc(-c2nc(-c3ccnc(C)c3)n[nH]2)cc1C#N is greater than or equal to 5
[reply] yes

[ask] # check: pIC50 of N#Cc1cc(-n2cc(-c3ccncc3)nn2)ccc1OC1CCCC1 is greater than or equal to 5
[reply] yes

[ask] # check: pIC50 of CC(C)Oc1ccc(-c2nc(-c3ccncc3)cn2O)cc1C#N is greater than or equal to 5
[reply] yes

[ask] # check: pIC50 of COCCOc1ccc(-c2nc(-c3ccnc(C)c3)n[nH]2)cc1C#N is greater than or equal to 5
[reply] yes

[ask] # check: pIC50 of Cc1cc(-c2nnc(-c3ccc(OCCOCCOCCCl)c(C#N)c3)[nH]2)ccn1 is greater than or equal to 5
[reply] yes

[ask] # check: pIC50 of CCCCOc1ccc(-n2cc(-c3ccncc3)nn2)cc1C#N is greater than or equal to 5
[reply] no

###

Biological target: Xanthine dehydrogenase/oxidase (Bos taurus)
Test: Inhibition of bovine xanthine oxidase assessed as reduction in uric acid formation using xanthine as substrate preincubated for 15 mins followed by substrate addition by spectrophotometric analysis
Measured endpoint: pIC50

Response field pIC50 (Xanthine dehydrogenase/oxidase (Bos taurus)) for item Cc1cc(-c2n[nH]c(-c3ccc(O)c(C#N)c3)n2)ccn1 : 7.37

Response field pIC50 (Xanthine dehydrogenase/oxidase (Bos taurus)) for item Cc1cc(-c2n[nH]c(-c3ccc(OCCO)c(C#N)c3)n2)ccn1 : 7.4

Response field pIC50 (Xanthine dehydrogenase/oxidase (Bos taurus)) for item COc1ccc(-c2nc(-c3ccncc3)cn2O)cc1C#N : 4.81

Response field pIC50 (Xanthine dehydrogenase/oxidase (Bos taurus)) for item CC(C)COc1ccc(-c2nc(-c3cccnc3)n[nH]2)cc1[N+](=O)[O-] : 5.23

Response field pIC50 (Xanthine dehydrogenase/oxidase (Bos taurus)) for item CCC(C)Oc1ccc(-n2cc(-c3ccncc3)nn2)cc1C#N (stereo not drawn) : 4.74

Response field pIC50 (Xanthine dehydrogenase/oxidase (Bos taurus)) for item Cc1cc(-c2nc(-c3ccc(OCC(C)C)c([N+](=O)[O-])c3)n[nH]2)ccn1 : 8

Response field pIC50 (Xanthine dehydrogenase/oxidase (Bos taurus)) for item CCC(C)Oc1ccc(-c2nc(-c3ccncc3)cn2O)cc1C#N (stereo not drawn) : 5.36

Response field pIC50 (Xanthine dehydrogenase/oxidase (Bos taurus)) for item N#Cc1cc(-n2cc(-c3ccncc3)nn2)ccc1OCc1ccccc1 : 4.35

Response field pIC50 (Xanthine dehydrogenase/oxidase (Bos taurus)) for item COCCOCCOc1ccc(-c2nc(-c3ccnc(C)c3)n[nH]2)cc1C#N : 7.51

Response field pIC50 (Xanthine dehydrogenase/oxidase (Bos taurus)) for item CC(C)CCOc1ccc(-c2nc(-c3cccnc3)cn2O)cc1C#N : 5.17

Response field pIC50 (Xanthine dehydrogenase/oxidase (Bos taurus)) for item CC(C)CCOc1ccc(-n2cc(-c3ccncc3)nn2)cc1C#N : 5.09

Response field pIC50 (Xanthine dehydrogenase/oxidase (Bos taurus)) for item CCCCOCCOCCOc1ccc(-c2nnc(-c3ccnc(C)c3)[nH]2)cc1C#N : 7.59

Response field pIC50 (Xanthine dehydrogenase/oxidase (Bos taurus)) for item Cc1cc(-c2nnc(-c3ccc(OCC(=O)O)c(C#N)c3)[nH]2)ccn1 : 6.96
